- MEASUREMENT_TARGET: Human recombinant HDAC1 (Homo sapiens)
- Construct: purchased Enzo Life Science Co. (named for the kit; assigned to the enzyme from the BML- catalogue prefix) BML-SE456
- Sequence (Q13547 whole entry): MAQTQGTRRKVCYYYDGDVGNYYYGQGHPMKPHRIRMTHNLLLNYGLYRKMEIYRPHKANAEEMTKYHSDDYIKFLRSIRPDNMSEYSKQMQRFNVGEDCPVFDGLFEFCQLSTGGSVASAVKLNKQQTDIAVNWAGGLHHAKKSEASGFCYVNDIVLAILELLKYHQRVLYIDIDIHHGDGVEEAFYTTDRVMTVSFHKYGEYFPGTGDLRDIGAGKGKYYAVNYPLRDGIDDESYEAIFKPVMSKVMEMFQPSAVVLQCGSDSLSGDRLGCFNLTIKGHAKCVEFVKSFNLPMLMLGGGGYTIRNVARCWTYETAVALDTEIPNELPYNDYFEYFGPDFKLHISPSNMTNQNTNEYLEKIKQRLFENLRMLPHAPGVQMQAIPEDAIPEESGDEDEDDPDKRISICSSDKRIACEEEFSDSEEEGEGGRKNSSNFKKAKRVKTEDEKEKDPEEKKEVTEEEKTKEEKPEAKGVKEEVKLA
- ASSAY_NOTES: HDAC enzyme activity test, HDAC1
- Format: biochemical
- MEASUREMENT_PARAMETERS: Table 11, eleven HDAC isozymes; read-out: Inhibition ability (IC50) against HDAC1
MEASUREMENT_KIND: IC50

COMPOUND: CN1CCN(C(=O)N(CCCCCCC(=O)NO)c2ccc(-c3ccc4cnn(C)c4c3)cc2)CC1 [CKD-581, reference compound]
MEASUREMENT_TARGET: Human recombinant HDAC1 (Homo sapiens)
MEASUREMENT_KIND: IC50
RESULT: 0.000673 µM

COMPOUND: CC1(C)CC(=O)c2c(n(Cc3ccc(C(=O)NO)cc3)c3ccccc23)C1 [Compound 19]
MEASUREMENT_TARGET: Human recombinant HDAC1 (Homo sapiens)
MEASUREMENT_KIND: IC50
RESULT: 18.1 µM

COMPOUND: CN1CCN(CC2CCc3c(c4cc(F)ccc4n3Cc3ccc(C(=O)NO)cc3)C2=O)CC1 (stereo not shown) [Compound 142]
MEASUREMENT_TARGET: Human recombinant HDAC1 (Homo sapiens)
MEASUREMENT_KIND: IC50
RESULT: 12.2 µM

Note: attention shifts to another entry.
Ask | Returns the measured IC50 for the input compound. Input: O=C(NO)c1ccc(Cn2c3c(c4ccccc42)C(=O)N(CCN2CCOCC2)CC3)cc1 [Compound 249]
Reply | 8.47 µM

====

Each entry below carries its reported Selectivity for HDAC6, HD1/HD6.
- MEASUREMENT_TARGET: human recombinant HDAC6 (Homo sapiens)
- Construct: purchased Calibiochem Co. (so in the source) 382180
- Sequence (Q9UBN7 whole entry): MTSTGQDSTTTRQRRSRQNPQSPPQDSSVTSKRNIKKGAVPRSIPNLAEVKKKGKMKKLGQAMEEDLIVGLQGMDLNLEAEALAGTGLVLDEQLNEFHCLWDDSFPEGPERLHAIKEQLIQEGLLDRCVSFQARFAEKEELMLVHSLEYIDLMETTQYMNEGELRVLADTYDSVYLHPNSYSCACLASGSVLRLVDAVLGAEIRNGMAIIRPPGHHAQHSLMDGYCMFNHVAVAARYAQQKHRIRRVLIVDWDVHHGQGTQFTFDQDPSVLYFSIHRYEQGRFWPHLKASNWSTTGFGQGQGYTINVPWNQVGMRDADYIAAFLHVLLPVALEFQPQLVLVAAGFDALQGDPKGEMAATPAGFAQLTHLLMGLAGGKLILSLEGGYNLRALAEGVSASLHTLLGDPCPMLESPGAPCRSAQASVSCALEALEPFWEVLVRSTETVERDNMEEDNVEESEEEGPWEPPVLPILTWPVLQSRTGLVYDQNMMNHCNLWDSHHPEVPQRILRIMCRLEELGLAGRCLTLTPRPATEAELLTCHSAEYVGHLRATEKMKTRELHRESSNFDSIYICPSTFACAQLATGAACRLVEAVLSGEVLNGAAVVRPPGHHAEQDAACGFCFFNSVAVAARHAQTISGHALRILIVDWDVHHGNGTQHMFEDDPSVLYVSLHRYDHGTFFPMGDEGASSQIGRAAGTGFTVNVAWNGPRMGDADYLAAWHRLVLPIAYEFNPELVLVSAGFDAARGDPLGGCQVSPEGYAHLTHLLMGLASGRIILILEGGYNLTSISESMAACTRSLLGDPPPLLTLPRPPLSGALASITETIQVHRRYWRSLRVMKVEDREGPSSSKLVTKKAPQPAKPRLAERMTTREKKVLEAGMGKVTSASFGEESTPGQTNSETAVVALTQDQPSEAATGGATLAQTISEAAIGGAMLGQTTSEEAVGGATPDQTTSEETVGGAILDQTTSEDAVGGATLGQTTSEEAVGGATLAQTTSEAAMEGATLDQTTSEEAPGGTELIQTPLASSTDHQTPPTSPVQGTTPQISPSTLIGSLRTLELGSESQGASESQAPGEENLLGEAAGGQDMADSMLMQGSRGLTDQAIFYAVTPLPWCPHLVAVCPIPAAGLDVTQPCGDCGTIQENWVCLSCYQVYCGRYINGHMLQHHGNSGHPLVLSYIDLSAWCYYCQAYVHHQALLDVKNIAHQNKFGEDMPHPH
- ASSAY_NOTES: HDAC enzyme activity test, HDAC6
- Assay type: biochemical
- MEASUREMENT_PARAMETERS: Table 12; ratio HDAC1 IC50 / HDAC6 IC50
A bare number is all that is needed in reply.

Check out these entries, answers already filled in.
MOLECULE: CC1(C)CC(=O)c2c(n(CCCCCC(=O)NO)c3c(Cl)ccc(Cl)c23)C1
Selectivity for HDAC6, HD1/HD6: 30.1
//
MOLECULE: O=C(NO)c1ccc(Cn2c3c(c4ccccc42)C(=O)C(CN2CCOCC2)CC3)cc1 (centres unmarked)
Selectivity for HDAC6, HD1/HD6: 411.8
//
MOLECULE: Cc1cn(Cc2ccc(C(=O)NO)cc2)c2c1C(=O)NCC2
Selectivity for HDAC6, HD1/HD6: 107.4
//
MOLECULE: CC1(C)CC(=O)c2c(n(Cc3ccc(C(=O)NO)cc3)c3c(Cl)ccc(Cl)c23)C1
Selectivity for HDAC6, HD1/HD6: 144.8
//
MOLECULE: CC1(C)CC(=O)c2c(n(CCCCCC(=O)NO)c3ccccc23)C1
Selectivity for HDAC6, HD1/HD6: 18.5
//
MOLECULE: Cc1nccn1CC1CCc2c(c3cc(F)ccc3n2Cc2ccc(C(=O)NO)cc2)C1=O (centres unmarked)
Selectivity for HDAC6, HD1/HD6: 602.7
//
MOLECULE: O=C(CCCCCn1c2c(c3cc(F)ccc31)C(=O)C(CN1CCN(c3ccc(F)cc3)CC1)CC2)NO (centres unmarked)
Selectivity for HDAC6, HD1/HD6: 40.8

Note: attention shifts to another entry.
Ask | Returns the measured Selectivity for HDAC6, HD1/HD6 for the input molecule. Input: O=C(NO)c1ccc(Cn2c3c(c4cc(F)ccc42)C(=O)C(CN2CCOCC2)CC3)cc1 (centres unmarked)
Reply | 850.7

====

- MEASUREMENT_TARGET: Human recombinant HDAC1 (Homo sapiens)
- Construct: purchased Enzo Life Science Co. (named for the kit; assigned to the enzyme from the BML- catalogue prefix) BML-SE456
- ASSAY_NOTES: HDAC enzyme activity test, HDAC1
- Format: biochemical
- MEASUREMENT_PARAMETERS: Table 12; read-out: Inhibition ability (IC50) HDAC1
pIC50: −log10 of the molar value.
Label Met when pIC50 is at or above 6; otherwise label Not met.

Example entries and their recorded answers appear below.
COMPOUND: CC(C)(C)OC(=O)N1CCN(CC2CCc3c(c4cc(F)ccc4n3Cc3ccc(C(=O)NO)cc3)C2=O)CC1 (stereo not drawn) [Compound 144]
MEASUREMENT_TARGET: Human recombinant HDAC1 (Homo sapiens)
CLASS_NAME: Not met

COMPOUND: O=C(NO)c1ccc(Cn2c3c(c4ccccc42)C(=O)C(CN2CC(F)(F)C2)CC3)cc1 (stereo not drawn) [Compound 121]
MEASUREMENT_TARGET: Human recombinant HDAC1 (Homo sapiens)
CLASS_NAME: Not met

COMPOUND: CC(C)N1CCN(CC2CCc3c(c4cc(F)ccc4n3Cc3ccc(C(=O)NO)cc3)C2=O)CC1 (stereo not drawn) [Compound 188]
MEASUREMENT_TARGET: Human recombinant HDAC1 (Homo sapiens)
CLASS_NAME: Not met

COMPOUND: CC1(C)CC(=O)c2c(n(Cc3ccc(C(=O)NO)cc3)c3ccc(F)cc23)C1 [Compound 57]
MEASUREMENT_TARGET: Human recombinant HDAC1 (Homo sapiens)
CLASS_NAME: Not met

COMPOUND: CCCCN1CCN(CC2CCc3c(c4cc(F)ccc4n3Cc3ccc(C(=O)NO)cc3)C2=O)CC1 (stereo not drawn) [Compound 190]
MEASUREMENT_TARGET: Human recombinant HDAC1 (Homo sapiens)
CLASS_NAME: Not met

COMPOUND: CN1CCN(CC2CCc3c(c4ccccc4n3Cc3ccc(C(=O)NO)cc3)C2=O)CC1 (stereo not drawn) [Compound 111]
MEASUREMENT_TARGET: Human recombinant HDAC1 (Homo sapiens)
CLASS_NAME: Not met

Ask | hey, is pIC50 for this one >= 6? CC1(C)CC(=O)c2c(n(CCCCCCC(=O)NO)c3ccccc23)C1 [Compound 20]
Reply | Met

Ask | Again, but for O=C(NO)c1ccc(Cn2c3c(c4cc(F)ccc42)C(=O)N(CCN2CCC[C@@H]2CO)CC3)cc1 [Compound 289]
Reply | Not met

Ask | Again, but for O=C(CCCCCCn1c2c(c3cc(F)ccc31)C(=O)CCC2)NO [Compound 325]
Reply | Met

Ask | Again, but for O=C(CCCCCn1c2c(c3ccccc31)C(=O)C(CN1CCOCC1)CC2)NO (stereo not drawn) [Compound 193]
Reply | Not met

====

# pIC50 measurements, system: HDAC9 (Homo sapiens, UniProt Q9UKV0)
# Sequence (Q9UKV0 whole entry, species assumed): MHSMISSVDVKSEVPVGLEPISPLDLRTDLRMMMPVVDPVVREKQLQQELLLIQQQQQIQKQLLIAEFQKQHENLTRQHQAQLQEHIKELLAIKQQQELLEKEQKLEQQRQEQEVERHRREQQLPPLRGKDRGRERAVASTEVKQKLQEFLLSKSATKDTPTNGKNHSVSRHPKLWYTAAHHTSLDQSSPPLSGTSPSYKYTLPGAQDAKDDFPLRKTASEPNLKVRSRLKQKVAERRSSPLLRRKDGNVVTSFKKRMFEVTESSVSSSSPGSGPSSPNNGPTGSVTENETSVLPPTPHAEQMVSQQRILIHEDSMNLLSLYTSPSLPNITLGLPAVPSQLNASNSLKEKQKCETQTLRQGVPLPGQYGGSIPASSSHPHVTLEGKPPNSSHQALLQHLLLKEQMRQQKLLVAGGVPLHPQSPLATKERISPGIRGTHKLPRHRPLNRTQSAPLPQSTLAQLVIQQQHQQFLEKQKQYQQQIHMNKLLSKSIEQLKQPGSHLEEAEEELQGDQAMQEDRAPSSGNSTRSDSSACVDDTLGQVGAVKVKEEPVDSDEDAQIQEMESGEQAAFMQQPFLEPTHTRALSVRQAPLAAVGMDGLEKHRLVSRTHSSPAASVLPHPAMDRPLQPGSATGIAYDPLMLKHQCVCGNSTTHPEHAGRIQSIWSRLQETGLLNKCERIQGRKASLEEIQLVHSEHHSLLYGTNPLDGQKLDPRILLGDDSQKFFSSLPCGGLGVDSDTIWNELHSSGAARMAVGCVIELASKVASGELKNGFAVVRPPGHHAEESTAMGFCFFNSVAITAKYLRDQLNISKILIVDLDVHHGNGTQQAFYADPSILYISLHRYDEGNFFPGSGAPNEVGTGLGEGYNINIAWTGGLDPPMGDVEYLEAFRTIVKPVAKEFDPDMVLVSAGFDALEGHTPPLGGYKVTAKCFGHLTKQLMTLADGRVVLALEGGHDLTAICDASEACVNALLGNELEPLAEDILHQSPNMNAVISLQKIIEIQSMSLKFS
Conceptually, pIC50 converts a concentration in mol/L into minus its log10.

COMPOUND: CC1(C)CC(=O)c2c(n(Cc3ccc(C(=O)NO)cc3)c3ccccc23)C1 [Compound 19]
pIC50: 4.52

COMPOUND: CC1(C)CC(=O)c2c(C(F)(F)F)nn(Cc3ccc(C(=O)NO)cc3)c2C1 [Compound 237]
pIC50: 4.77

COMPOUND: CN1CCN(CC2CCc3c(c4cc(F)ccc4n3Cc3ccc(C(=O)NO)cc3)C2=O)CC1 (stereo not drawn) [Compound 142]
pIC50: 5.73

COMPOUND: CN1CCN(C(=O)N(CCCCCCC(=O)NO)c2ccc(-c3ccc4cnn(C)c4c3)cc2)CC1 [CKD-581, reference compound]
pIC50: 9.38

COMPOUND: O=C(NO)c1ccc(Cn2c3c(c4ccccc42)C(=O)N(CCN2CCOCC2)CC3)cc1 [Compound 249]
pIC50: 5.99

Ask | Returns the measured pIC50 for the input compound. Input: O=C(NO)c1ccc(Cn2c3c(c4ccccc42)C(=O)C(CN2CCOCC2)CC3)cc1 (stereo not drawn) [Compound 87]
Reply | 5.76

====

- MEASUREMENT_TARGET: human recombinant HDAC6 (Homo sapiens)
- Construct: purchased Calibiochem Co. (so in the source) 382180
- ASSAY_NOTES: HDAC enzyme activity test, HDAC6
- Format: biochemical
- MEASUREMENT_PARAMETERS: Table 12; ratio HDAC1 IC50 / HDAC6 IC50
Each entry below carries its reported Selectivity for HDAC6, HD1/HD6.
A bare number is all that is needed in reply.

Check out these entries, answers already filled in.
COMPOUND: CC1(C)Cc2c(c3cc(F)ccc3n2Cc2ccc(C(=O)NO)cc2)C(=O)C1CN1CCOCC1 (stereo not shown) [Compound 207]
MEASUREMENT_TARGET: human recombinant HDAC6 (Homo sapiens)
MEASUREMENT_KIND: Selectivity for HDAC6, HD1/HD6
NUMBER: 41.5

COMPOUND: CC1(C)CC(=O)c2c(n(Cc3ccc(C(=O)NO)cc3)c3ccccc23)C1 [Compound 19]
MEASUREMENT_TARGET: human recombinant HDAC6 (Homo sapiens)
MEASUREMENT_KIND: Selectivity for HDAC6, HD1/HD6
NUMBER: 201.8

COMPOUND: Cc1nccn1CC1C(=O)c2c(n(Cc3ccc(C(=O)NO)cc3)c3ccccc23)CC1(C)C (stereo not shown) [Compound 126]
MEASUREMENT_TARGET: human recombinant HDAC6 (Homo sapiens)
MEASUREMENT_KIND: Selectivity for HDAC6, HD1/HD6
NUMBER: 163.3

COMPOUND: CCN1CCN(CC2CCc3c(c4ccccc4n3CCCCCC(=O)NO)C2=O)CC1 (stereo not shown) [Compound 206]
MEASUREMENT_TARGET: human recombinant HDAC6 (Homo sapiens)
MEASUREMENT_KIND: Selectivity for HDAC6, HD1/HD6
NUMBER: 43.5

COMPOUND: CC1(C)CC(=O)c2c(n(CCCCCC(=O)NO)c3ccc(Br)cc23)C1 [Compound 40]
MEASUREMENT_TARGET: human recombinant HDAC6 (Homo sapiens)
MEASUREMENT_KIND: Selectivity for HDAC6, HD1/HD6
NUMBER: 75.5

Ask | Returns the measured Selectivity for HDAC6, HD1/HD6 for the input compound. Input: O=C(CCCCCn1c2c(c3ccccc31)C(=O)C(CN1CCOCC1)CC2)NO (stereo not shown) [Compound 193]
Reply | 464.3

Ask | Again, but for O=C(NO)c1ccc(Cn2c3ccccc3c3c(=O)[nH]cnc32)cc1 [Compound 179]
Reply | 43.693

Ask | Again, but for CC1(C)CC(=O)c2c(n(Cc3ccc(C(=O)NO)cc3)c3cc(F)c(F)cc23)C1 [Compound 71]
Reply | 37

Ask | Again, but for CC1(C)CC(=O)c2c(n(CCCCCCC(=O)NO)c3ccccc23)C1 [Compound 20]
Reply | 16.8

Ask | Again, but for CN(CCO)CCN1CCc2c(c3cc(F)ccc3n2Cc2ccc(C(=O)NO)cc2)C1=O [Compound 292]
Reply | 781.3

Ask | Again, but for CC1(C)CC(=O)c2c(n(Cc3ccc(C(=O)NO)cc3)c3cc(Br)ccc23)C1 [Compound 54]
Reply | 24.7
